- TEST_SYSTEM: BTK protein (Homo sapiens, UniProt Q06187)
- Construct: endogenous in cells; host or cells: TMD-8 cells
- Sequence (Q06187 whole entry): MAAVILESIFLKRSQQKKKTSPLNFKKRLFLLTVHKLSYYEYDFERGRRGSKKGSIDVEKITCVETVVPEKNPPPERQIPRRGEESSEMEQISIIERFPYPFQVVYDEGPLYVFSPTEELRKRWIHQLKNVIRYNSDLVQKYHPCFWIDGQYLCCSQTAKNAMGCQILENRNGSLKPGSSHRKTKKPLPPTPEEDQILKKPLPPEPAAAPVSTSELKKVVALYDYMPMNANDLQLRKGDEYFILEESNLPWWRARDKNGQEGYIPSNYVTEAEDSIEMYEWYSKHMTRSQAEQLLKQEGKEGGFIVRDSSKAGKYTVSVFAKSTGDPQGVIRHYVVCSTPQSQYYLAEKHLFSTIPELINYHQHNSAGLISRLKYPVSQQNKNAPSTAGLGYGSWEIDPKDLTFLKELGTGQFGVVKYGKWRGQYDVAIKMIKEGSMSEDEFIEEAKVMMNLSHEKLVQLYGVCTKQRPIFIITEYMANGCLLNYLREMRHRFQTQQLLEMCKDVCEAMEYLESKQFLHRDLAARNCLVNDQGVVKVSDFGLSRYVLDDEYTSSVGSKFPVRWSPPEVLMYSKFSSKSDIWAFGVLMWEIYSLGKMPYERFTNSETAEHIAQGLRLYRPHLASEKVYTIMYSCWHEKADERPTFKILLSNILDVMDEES
- ASSAY_METHOD_TEXT: Measurement of BTK protein degradation ability in TMD-8 cells (Western blotting)
- Type: cell-based
- REPORTED_CONDITIONS: compound 10 nM, harvested after 24 hours
- Description: TMD-8, RAMOS, or 293T BTK MUT (C481S) cells were treated with the synthesized compounds, and then the amount of BTK protein present in the cells was measured using Western blotting detection. The protocol for the experiment conducted using TMD-8 cells was as follows: [Culture] […] [Western blotting detection method] […] The samples were washed 5 times with 0.5% TBST for 5 minutes each and detected with LI-COR's Odyssey. […]
Record Satisfied whenever BTK degradation (%) 10 nM is at 90% or higher; record Not satisfied when lower.

Is BTK degradation (%) 10 nM at least 90%? Consider Cc1c(NC(=O)c2cn(C(C)(C)C)nn2)cc(F)cc1-c1ccnc(Nc2ccc3c(c2)CN(CC2CCN(c4ccc5c(c4)C(=O)N(C4CCC(=O)NC4=O)C5=O)CC2)CC3)n1 (stereo not drawn)
Not satisfied

Textbook exercise: given the entry Cc1cc(-c2ccnc(Nc3ccc(N4CC(CN5CCN(C(=O)c6cccc(NC7CCC(=O)NC7=O)c6)CC5)C4)cc3)n2)ccc1CNC(=O)N1CC(OC(C)C)C1 (stereo not drawn) , state whether its BTK degradation (%) 10 nM is greater than or equal to 90%.
Satisfied

Would you say Cc1cc(-c2ccnc(Nc3ccc(N4CCC(CN5CCC(c6ccc(NC7CCC(=O)NC7=O)cn6)CC5)CC4)cc3)n2)ccc1CNC(=O)c1cnn(C(C)C)c1 (stereo not drawn) shows BTK degradation (%) 10 nM at minimum 90%?
Satisfied

Could you verify whether the entry Cc1cc(-c2ccnc(Nc3ccc(C4CCN(CC5CN(c6ccc7c(c6)C(=O)N(C6CCC(=O)NC6=O)C7=O)C5)CC4)cc3)n2)ccc1CNC(=O)N1CC(OC(C)C)C1 (stereo not drawn) shows BTK degradation (%) 10 nM of no less than 90%?
Satisfied

Kindly determine if BTK degradation (%) 10 nM recorded for Cc1cc(-c2ccnc(Nc3ccc(N4CCN(CC5CN(C(=O)c6cccc(NC7CCC(=O)NC7=O)c6)C5)CC4)cc3)n2)ccc1CNC(=O)c1cnn(C(C)C)c1 (stereo not drawn) is above or exactly 90%.
Satisfied

# check: BTK degradation (%) 10 nM of Cc1cc(-c2ccnc(Nc3ccc(N4CCC(CN5CCC(c6ccc(NC7CCC(=O)NC7=O)cn6)CC5)CC4)cc3)n2)ccc1CNC(=O)c1cn(C(C)(C)C)nn1 (stereo not drawn) is greater than or equal to 90%
Satisfied

Could you tell me if the measured BTK degradation (%) 10 nM of Cc1cc(-c2ccnc(Nc3cnn(C4CCN(CC5CN(c6ccc7c(c6)C(=O)N(C6CCC(=O)NC6=O)C7=O)C5)CC4)c3)n2)ccc1CNC(=O)c1cnn(C(C)C)c1 (stereo not drawn) reaches 90% or more?
Satisfied

Can COc1ccc(C(=O)N2CCC(CN3CCN(c4ccc(Nc5nccc(-c6cc(F)cc(NC(=O)N7CC(OC(C)C)C7)c6C)n5)cc4)CC3)CC2)cc1N1CCC(=O)NC1=O be said to have BTK degradation (%) 10 nM at or above 90%?
Not satisfied

Is reported BTK degradation (%) 10 nM greater than or equal to 90% here: Cc1cc(-c2ccnc(Nc3cnn(C4CCN(CC5CN(C(=O)c6cccc(NC7CCC(=O)NC7=O)c6)C5)CC4)c3)n2)ccc1CNC(=O)N1CC(OC(C)C)C1 (stereo not drawn)
Not satisfied

Could you please find out whether Cc1cc(-c2ccnc(Nc3ccc(N4CCN(CC5CCN(c6ccc7c(c6)C(=O)N(C6CCC(=O)NC6=O)C7=O)CC5)CC4)cc3)n2)ccc1CNC(=O)c1cn(C(C)(C)C)nn1 (stereo not drawn) has BTK degradation (%) 10 nM that meets 90% or exceeds it?
Not satisfied

Decide: is the reported value of BTK degradation (%) 10 nM for Cc1cc(-c2ccnc(Nc3ccc(C4CCN(CC5CCN(c6cccc(N7CCC(=O)NC7=O)c6)CC5)CC4)cc3)n2)ccc1CNC(=O)c1cn(C(C)(C)C)nn1 equal to or greater than 90%?
Satisfied

Is BTK degradation (%) 10 nM for Cc1cc(-c2ccnc(Nc3ccc(N4CCC(CN5CCC(c6ccc(NC7CCC(=O)NC7=O)cc6)CC5)CC4)cc3)n2)ccc1CNC(=O)c1cnn(C(C)C)c1 (stereo not drawn) at or above 90%?
Satisfied

Please tell me: is the compound Cc1cc(-c2ccnc(Nc3ccc(N4CCN(CC5CCN(c6ccc7c(n6)CN(C6CCC(=O)NC6=O)C7=O)CC5)CC4)cc3)n2)ccc1CNC(=O)N1CC(OC(C)C)C1 (stereo not drawn) at or over 90% in terms of BTK degradation (%) 10 nM?
Satisfied

I'd appreciate it if you could say whether Cc1cc(-c2ccnc(Nc3cnn(C4CCN(CC5CCN(C(=O)c6cccc(NC7CCC(=O)NC7=O)c6)CC5)CC4)c3)n2)ccc1CNC(=O)N1CC(OC(C)C)C1 (stereo not drawn) has BTK degradation (%) 10 nM at least equal to 90%.
Not satisfied

BTK degradation (%) 10 nM >= 90% for Cc1cc(-c2ccnc(Nc3ccc(CN4CCN(CC5CCN(c6cccc(OC7CCC(=O)NC7=O)c6)CC5)CC4)cc3)n2)ccc1CNC(=O)N1CC(OC(C)C)C1 (stereo not drawn) ?
Not satisfied

For this compound, is measured BTK degradation (%) 10 nM 90% or higher? Cc1cc(-c2ccnc(Nc3ccc(N4CCC(CN5CCC(c6ccc(NC7CCC(=O)NC7=O)cc6)CC5)CC4)cc3)n2)ccc1CNC(=O)c1cn(C(C)(C)C)nn1 (stereo not drawn)
Satisfied

Test whether the compound Cc1cc(-c2ccnc(Nc3ccc(N4CCC(CN5CCN(c6ccc(NC7CCC(=O)NC7=O)cn6)CC5)CC4)cc3)n2)ccc1CNC(=O)N1CC(OC(C)C)C1 (stereo not drawn) records BTK degradation (%) 10 nM of 90% or higher.
Satisfied

I'd appreciate it if you could say whether Cc1cc(-c2ccnc(Nc3ccc(N4CCC(CN5CCN(C(=O)c6cccc(NC7CCC(=O)NC7=O)c6)CC5)CC4)cc3)n2)ccc1CNC(=O)N1CC(OC(C)C)C1 (stereo not drawn) has BTK degradation (%) 10 nM at least equal to 90%.
Satisfied

----------
For each of the compounds below, state its BTK degradation (%) 100 nM.
- TEST_SYSTEM: BTK protein (Homo sapiens, UniProt Q06187)
- Construct: endogenous in cells; host or cells: TMD-8 cells
- ASSAY_METHOD_TEXT: Measurement of BTK protein degradation ability in TMD-8 cells (Western blotting)
- Assay type: cell-based
- REPORTED_CONDITIONS: compound 100 nM, harvested after 24 hours
Please reply with the bare figure in % and do not write the unit itself.

So, Cc1cc(-c2ccnc(Nc3ccc(N4CC(CN5CCN(C(=O)c6cccc(NC7CCC(=O)NC7=O)c6)CC5)C4)cc3)n2)ccc1CNC(=O)N1CC(OC(C)C)C1 (centres unmarked) [Example 113] ? Its BTK degradation (%) 100 nM was 100.0

Entry Cc1cc(-c2ccnc(Nc3ccc(N4CCN(CC5CCN(c6cccc(N7CCC(=O)NC7=O)c6)CC5)CC4)cc3)n2)ccc1CNC(=O)c1cnn(C(C)(C)C)c1 [Example 81] , BTK degradation (%) 100 nM reported as 99.5

Lab book: BTK degradation (%) 100 nM of Cc1cc(-c2ccnc(Nc3ccc(N4CCC(CN5CCC(c6ccc(NC7CCC(=O)NC7=O)cn6)CC5)CC4)cc3)n2)ccc1CNC(=O)c1cn(C(C)(C)C)nn1 (centres unmarked) [Example 132] noted as 100.0

Consider Cc1cc(-c2ccnc(Nc3ccc(CN4CCN(CC5CCN(c6cccc(N7CCC(=O)NC7=O)c6)CC5)CC4)cc3)n2)ccc1CNC(=O)c1cn(C(C)(C)C)nn1 [Example 74] . Its measured BTK degradation (%) 100 nM is 96.5

The compound identified as Cc1cc(-c2ccnc(Nc3ccc(N4CCC(CN5CCN(c6ccc(OC7CCC(=O)NC7=O)cn6)CC5)CC4)cc3)n2)ccc1CNC(=O)N1CC(OC(C)C)C1 (centres unmarked) [Example 125] registered its BTK degradation (%) 100 nM at 99.3

----------
- TEST_SYSTEM: BTK protein (Homo sapiens, UniProt Q06187)
- Construct: endogenous in cells; host or cells: TMD-8 cells
- ASSAY_METHOD_TEXT: Measurement of BTK protein degradation ability in TMD-8 cells (Western blotting)
- Type: cell-based
- REPORTED_CONDITIONS: compound 100 nM, harvested after 24 hours
Kindly state BTK degradation (%) 100 nM for each of the entries shown.
Reply with just the number (in %).

Recorded BTK degradation (%) 100 nM (molecule Cc1cc(-c2ccnc(Nc3ccc(C4CCN(CC5CN(c6ccc7c(c6)C(=O)N(C6CCC(=O)NC6=O)C7=O)C5)CC4)cc3)n2)ccc1CNC(=O)c1cnn(C(C)(C)C)c1 (centres unmarked) ): 98.0

Please fill in: BTK degradation (%) 100 nM reported for Cc1cc(-c2ccnc(Nc3ccc(N4CCN(CC5CCN(c6ccc7c(c6)C(=O)N(C6CCC(=O)NC6=O)C7=O)CC5)CC4)nc3)n2)ccc1CNC(=O)N1CC(OC(C)C)C1 (centres unmarked) = 98

The molecule Cc1cc(-c2ccnc(Nc3cnn(C4CCN(CC5CCN(c6ccc7c(c6)C(=O)N(C6CCC(=O)NC6=O)C7=O)CC5)CC4)c3)n2)ccc1CNC(=O)c1cnn(C(C)(C)C)c1 (centres unmarked) showed BTK degradation (%) 100 nM equal to 99

Item: Cc1cc(-c2ccnc(Nc3ccc(CN4CCC(CN5CCC(c6ccc(N7CCC(=O)NC7=O)cc6)CC5)CC4)cc3)n2)ccc1CNC(=O)c1cn(C(C)(C)C)nn1 | BTK degradation (%) 100 nM: 96.5

Lookup result for Cc1cc(-c2ccnc(Nc3ccc(C4CCN(CC5CN(c6ccc7c(c6)C(=O)N(C6CCC(=O)NC6=O)C7=O)C5)CC4)cc3)n2)ccc1CNC(=O)N1CC(OC(C)C)C1 (centres unmarked) ; measured BTK degradation (%) 100 nM: 98.5

For Cc1cc(-c2ccnc(Nc3ccc(CN4CCC(CN5CCC(c6ccc(NC7CCC(=O)NC7=O)cc6)CC5)CC4)cc3)n2)ccc1CNC(=O)c1cn(C(C)(C)C)nn1 (centres unmarked) the molecule record lists BTK degradation (%) 100 nM as 99.0

// field: BTK degradation (%) 100 nM; key: Cc1cc(-c2ccnc(Nc3ccc(N4CCN(CC5CCN(c6ccc7c(n6)CN(C6CCC(=O)NC6=O)C7=O)CC5)CC4)cc3)n2)ccc1CNC(=O)N1CC(OC(C)C)C1 (centres unmarked) ; value = 98.5

Reported BTK degradation (%) 100 nM ( Cc1cc(-c2ccnc(Nc3ccc(C4CCN(CC5CCN(c6ccc(OC7CCC(=O)NC7=O)cc6)CC5)CC4)cc3)n2)ccc1CNC(=O)c1cnn(C(C)C)c1 (centres unmarked) ) = 90.5

Lab note: measured BTK degradation (%) 100 nM of Cc1c(NC(=O)N2CC(OC(C)C)C2)cc(F)cc1-c1ccnc(Nc2ccc(N3CCN(CC4CN(c5ccc6c(n5)CN(C5CCC(=O)NC5=O)C6=O)C4)CC3)cc2)n1 (centres unmarked) was 94.5

# BTK degradation (%) 100 nM of Cc1cc(-c2ccnc(Nc3ccc(N4CCN(CC5CCN(c6cccc(OC7CCC(=O)NC7=O)c6)CC5)CC4)cc3)n2)ccc1CNC(=O)N1CC(OC(C)C)C1 (centres unmarked) = 100.0

# molecule Cc1c(NC(=O)c2cn(C(C)(C)C)nn2)cc(F)cc1-c1ccnc(Nc2ccc(N3CCN(CC4CCN(c5ccc6c(c5)C(=O)N(C5CCC(=O)NC5=O)C6=O)CC4)CC3)cc2)n1 (centres unmarked) ; its BTK degradation (%) 100 nM = 24

From: patent US20250041429A1
